tested on: LOX IMVI melanoma; assay: NCI tumour cell line growth inhibition, 48 h
*1 amine or outer side, *2 acyl side, *3 side chain or, on linkers, in order; H or OH if unused. Where a SMILES comes first, the peptide text is derived from it. [ ]: non-standard residue; d: D form. ξ: configuration not given here. X22 = O=C(C(CC(O)CO)O[*:1])[*:2]; Ile(3ξ) = CCC(C)[C@H](N)C(=O)O; NMeV = CN[C@H](C(=O)O)C(C)C; NMeA = CN[C@@H](C)C(=O)O; βAla = NCCC(=O)O
I'd appreciate it if you could supply TGI values for the items below.

Challenge: I have this molecule here, COC(=O)N/N=C(/c1nc2ccc([N+](=O)[O-])cc2[nH]c1=O)C(O)c1ccc(OC)c(OC)c1 (stereo not given) , and I need its recorded TGI.
Response given: > 61.7 µM

Challenge: I have this molecule here, "N=C1C(c2nc3ccccc3s2)=C(O)CN1c1cc(Cl)cc(Cl)c1" , and I need its recorded TGI.
Response given: > 100 µM

Challenge: I have this molecule here, CCC(C)[C@@H]1NC(=O)[C@@H]2CCCN2C(=O)C(CC(O)CO)OC(=O)CCNC(=O)[C@H](C)N(C)C(=O)[C@H](C(C)C)N(C)C1=O (stereo not given in full) (cyclo([Ile(3ξ)][NMeV][NMeA][βAla][X22]P)) , and I need its recorded TGI.
Response given: > 100 µM

Challenge: I have this molecule here, "O=C(O)c1nc2ccccc2nc1NCc1ccc(F)cc1" , and I need its recorded TGI.
Response given: > 100 µM

Challenge: I have this molecule here, "COC(=O)[C@]12CC[C@@H](C)[C@H](C)[C@@H]1C1=CC[C@@H]3[C@@]4(C)CC(=O)[C@H](O)[C@@](C)(CO)[C@@H]4C(=O)C[C@@]3(C)[C@]1(C)CC2" , and I need its recorded TGI.
Response given: 25.8 µM

Challenge: I have this molecule here, "COc1cc(NC(=O)c2ccccc2Nc2ccnc(C(F)(F)F)c2)cc(OC)c1OC" , and I need its recorded TGI.
Response given: > 100 µM

Challenge: I have this molecule here, "O=C1NC(=O)C(c2c[nH]c3ccccc23)=C1c1ccccc1" , and I need its recorded TGI.
Response given: > 25 µM

Challenge: I have this molecule here, "O=C1C(Br)=CC2(C=C1Br)CCNc1c(O)c3c4c(c12)=NCCC=4C=N3" , and I need its recorded TGI.
Response given: 0.254 µM

Challenge: I have this molecule here, "Nc1nc(OCC2CCCCC2)c2[nH]cnc2n1" , and I need its recorded TGI.
Response given: 37.7 µM

Challenge: I have this molecule here, Cc1c(N=Nc2ccc(Cl)cc2)c(C)n(C2OC(CO)C(O)C(O)C2O)c(=S)c1C#N (stereo not given) , and I need its recorded TGI.
Response given: 33.3 µM

Challenge: I have this molecule here, CCN1C(=O)N(CC)C2C1NN=c1s/c(=C\c3ccc(OC)cc3)c(=O)n12 (stereo not given) , and I need its recorded TGI.
Response given: > 100 µM

Challenge: I have this molecule here, "N=c1oc2ccc(Cl)cc2cc1C(N)=O" , and I need its recorded TGI.
Response given: > 100 µM

Challenge: I have this molecule here, "CSc1ccc(/C=C2\N=C(c3ccccc3)N(/N=C3\C(=O)Nc4ccccc43)C2=O)cc1" , and I need its recorded TGI.
Response given: > 100 µM

Challenge: I have this molecule here, "c1cc2c(c(NC3=NCCN3)c1)CCCC2" , and I need its recorded TGI.
Response given: > 100 µM

Challenge: I have this molecule here, "CNN1C(=O)c2c(C)c(C)c(C#N)c(N)c2C1=O" , and I need its recorded TGI.
Response given: > 100 µM

Challenge: I have this molecule here, "Oc1cccc(-c2nc(-c3ccccc3)[nH]c2-c2ccncc2)c1" , and I need its recorded TGI.
Response given: > 25 µM

Challenge: I have this molecule here, COC(=O)C(Cc1nc2ccccc2[nH]c1=O)C(=O)C(=O)Nc1ccc(F)cc1 (stereo not given) , and I need its recorded TGI.
Response given: > 100 µM

Challenge: I have this molecule here, "C#Cc1ccc(-n2c(/C=C/c3ccc4ccccc4c3)nc3ncccc3c2=O)cc1" , and I need its recorded TGI.
Response given: 3.11 µM

Challenge: I have this molecule here, "Cc1cc(C#Cc2ccccc2)ccc1-n1c(/C=C/c2cc(O)ccc2O)nc2ccccc2c1=O" , and I need its recorded TGI.
Response given: 2.65 µM

Challenge: I have this molecule here, "COc1c2ccccc2c(O)c2c(=O)ccn(C)c12" , and I need its recorded TGI.
Response given: 11.3 µM
